Tested target: CYP 2D6 (Homo sapiens, UniProt P10635)
Sequence (P10635 whole entry): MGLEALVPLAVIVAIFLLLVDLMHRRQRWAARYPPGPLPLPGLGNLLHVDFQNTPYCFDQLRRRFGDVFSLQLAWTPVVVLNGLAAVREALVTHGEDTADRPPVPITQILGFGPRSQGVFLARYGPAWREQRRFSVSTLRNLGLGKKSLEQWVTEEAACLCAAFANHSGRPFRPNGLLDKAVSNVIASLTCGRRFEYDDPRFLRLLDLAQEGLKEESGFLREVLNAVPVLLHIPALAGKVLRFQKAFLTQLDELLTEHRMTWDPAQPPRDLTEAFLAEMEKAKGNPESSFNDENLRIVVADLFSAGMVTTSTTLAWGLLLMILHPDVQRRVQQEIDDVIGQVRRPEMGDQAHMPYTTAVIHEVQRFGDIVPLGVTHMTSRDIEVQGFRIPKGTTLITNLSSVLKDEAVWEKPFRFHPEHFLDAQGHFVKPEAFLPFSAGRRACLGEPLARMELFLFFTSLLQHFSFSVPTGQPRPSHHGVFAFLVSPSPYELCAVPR
Protocol description: CYP inhibition in vitro
Assay type: in vitro ADME
Examples of compounds with documented IC50 follow.
Metric: IC50

> print(dat)
                                smiles.text   result
1  Cc1cc(F)c(C(=O)Nc2cccc(-c3nncn3[C@H](C)C(F)(F)F)n2)cc1NC(=O)C1CC1  > 10 µM
2  N#Cc1nn(-c2cc(Br)c(Oc3n[nH]c(=O)c4ccccc34)c(Br)c2)c(=O)[nH]c1=O  > 10 µM

----------
Tested target: CYP3A4 (Homo sapiens, UniProt P08684)
Sequence (P08684 whole entry): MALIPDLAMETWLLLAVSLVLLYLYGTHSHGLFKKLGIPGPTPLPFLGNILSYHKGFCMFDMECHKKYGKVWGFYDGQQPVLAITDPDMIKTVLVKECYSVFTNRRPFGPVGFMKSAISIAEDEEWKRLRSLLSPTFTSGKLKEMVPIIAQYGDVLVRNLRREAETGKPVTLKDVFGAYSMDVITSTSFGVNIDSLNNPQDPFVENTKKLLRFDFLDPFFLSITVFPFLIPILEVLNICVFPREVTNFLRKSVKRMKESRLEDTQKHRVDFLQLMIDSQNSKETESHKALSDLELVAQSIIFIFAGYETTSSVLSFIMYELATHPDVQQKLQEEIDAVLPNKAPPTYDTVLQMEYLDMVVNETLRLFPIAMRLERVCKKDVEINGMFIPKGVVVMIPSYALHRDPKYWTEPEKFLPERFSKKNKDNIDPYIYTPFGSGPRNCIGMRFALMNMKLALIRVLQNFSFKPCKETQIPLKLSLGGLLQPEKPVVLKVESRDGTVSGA
Protocol description: CYP inhibition in vitro
Assay setup: read-out: CYP3A4 (Midazolam) inhibition IC50; substrate Midazolam
Metric: IC50 (µM)

> print(dat)
                                smiles.text  relation  numeric.readout
1  Cc1cc(F)c(C(=O)Nc2cccc(-c3nncn3[C@H](C)C(F)(F)F)n2)cc1NC(=O)C1CC1         =             3.02
2  N#Cc1nn(-c2cc(Br)c(Oc3n[nH]c(=O)c4ccccc34)c(Br)c2)c(=O)[nH]c1=O         >               10

----------
Tested target: CYP 2C8 (Homo sapiens)
Sequence (P10632 1-490): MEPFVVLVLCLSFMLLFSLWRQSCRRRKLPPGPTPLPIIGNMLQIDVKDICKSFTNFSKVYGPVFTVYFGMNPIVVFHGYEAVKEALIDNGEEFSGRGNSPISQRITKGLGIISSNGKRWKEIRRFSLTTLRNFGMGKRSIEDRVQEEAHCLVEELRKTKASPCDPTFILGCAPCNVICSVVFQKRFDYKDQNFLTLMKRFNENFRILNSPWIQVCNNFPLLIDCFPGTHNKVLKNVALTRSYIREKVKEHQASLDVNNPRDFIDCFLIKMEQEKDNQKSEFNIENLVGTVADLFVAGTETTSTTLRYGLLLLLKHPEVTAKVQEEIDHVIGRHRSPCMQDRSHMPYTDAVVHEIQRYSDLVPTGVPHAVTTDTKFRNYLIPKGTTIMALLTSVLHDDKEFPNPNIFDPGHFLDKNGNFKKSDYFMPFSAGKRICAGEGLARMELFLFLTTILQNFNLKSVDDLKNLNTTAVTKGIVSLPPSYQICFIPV
Protocol description: CYP inhibition in vitro
Assay type: in vitro ADME
pIC50: −log10 of the molar value.
The reader will find reported pIC50 values listed item by item below.
Metric: pIC50

> print(dat)
                                   molecule  metric  result
1  Cc1cc(F)c(C(=O)Nc2cccc(-c3nncn3[C@H](C)C(F)(F)F)n2)cc1NC(=O)C1CC1 [CS17919]   pIC50  < 5.00
2  N#Cc1nn(-c2cc(Br)c(Oc3n[nH]c(=O)c4ccccc34)c(Br)c2)c(=O)[nH]c1=O [CS27109]   pIC50  < 5.00

----------
We begin with a simple list: items and their reported IC50.
Tested target: CYP 2C9 (Homo sapiens)
Sequence (P11712 whole entry): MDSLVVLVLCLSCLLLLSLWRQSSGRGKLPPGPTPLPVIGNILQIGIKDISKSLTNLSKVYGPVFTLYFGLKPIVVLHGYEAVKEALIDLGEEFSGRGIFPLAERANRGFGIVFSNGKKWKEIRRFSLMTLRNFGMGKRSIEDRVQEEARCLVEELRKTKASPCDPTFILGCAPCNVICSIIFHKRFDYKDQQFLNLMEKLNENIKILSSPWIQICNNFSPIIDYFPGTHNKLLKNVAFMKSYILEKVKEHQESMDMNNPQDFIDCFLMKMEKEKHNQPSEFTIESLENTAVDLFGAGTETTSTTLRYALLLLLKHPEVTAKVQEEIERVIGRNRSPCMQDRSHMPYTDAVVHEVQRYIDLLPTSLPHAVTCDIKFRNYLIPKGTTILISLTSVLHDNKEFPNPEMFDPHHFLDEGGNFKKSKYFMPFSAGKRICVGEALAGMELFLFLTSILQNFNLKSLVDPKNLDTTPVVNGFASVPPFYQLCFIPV
Protocol description: CYP inhibition in vitro
Format: in vitro ADME
Metric: IC50 (µM)

> print(dat)
                                   compound  relation  numeric.readout
1  Cc1cc(F)c(C(=O)Nc2cccc(-c3nncn3[C@H](C)C(F)(F)F)n2)cc1NC(=O)C1CC1 [CS17919]         >               10
2  N#Cc1nn(-c2cc(Br)c(Oc3n[nH]c(=O)c4ccccc34)c(Br)c2)c(=O)[nH]c1=O [CS27109]         =              5.1

----------
# collection of pIC50 values tested on CYP3A4 (Homo sapiens, UniProt P08684)
pIC50: −log10 of the molar value.
Metric: pIC50

> print(dat)
                                   compound  metric  result
1  Cc1cc(F)c(C(=O)Nc2cccc(-c3nncn3[C@H](C)C(F)(F)F)n2)cc1NC(=O)C1CC1 [CS17919]   pIC50  < 5.00
2  N#Cc1nn(-c2cc(Br)c(Oc3n[nH]c(=O)c4ccccc34)c(Br)c2)c(=O)[nH]c1=O [CS27109]   pIC50  < 5.00

----------
IC50: recorded values
Tested target: CYP 2C19 (Homo sapiens)
Sequence (P33261 whole entry): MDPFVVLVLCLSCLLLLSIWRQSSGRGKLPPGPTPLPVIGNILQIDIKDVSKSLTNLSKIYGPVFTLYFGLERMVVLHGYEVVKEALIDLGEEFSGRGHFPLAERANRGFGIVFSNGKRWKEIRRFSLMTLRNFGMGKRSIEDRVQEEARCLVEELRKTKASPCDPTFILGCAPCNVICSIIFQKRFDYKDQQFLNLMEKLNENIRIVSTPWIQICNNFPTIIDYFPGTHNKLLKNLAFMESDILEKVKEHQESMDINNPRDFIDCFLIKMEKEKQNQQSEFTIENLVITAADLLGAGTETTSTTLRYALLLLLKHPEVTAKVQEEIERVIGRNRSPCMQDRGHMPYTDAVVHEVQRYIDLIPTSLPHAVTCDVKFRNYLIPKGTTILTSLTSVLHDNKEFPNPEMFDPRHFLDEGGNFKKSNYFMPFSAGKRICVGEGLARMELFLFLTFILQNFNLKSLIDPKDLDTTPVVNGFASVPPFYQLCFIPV
Protocol description: CYP inhibition in vitro
Assay type: in vitro ADME
Metric: IC50

> print(dat)
                                   compound   result
1  Cc1cc(F)c(C(=O)Nc2cccc(-c3nncn3[C@H](C)C(F)(F)F)n2)cc1NC(=O)C1CC1 [CS17919]  > 10 µM
2  N#Cc1nn(-c2cc(Br)c(Oc3n[nH]c(=O)c4ccccc34)c(Br)c2)c(=O)[nH]c1=O [CS27109]  > 10 µM
